Species: Rattus norvegicus
Assay info: DrugMatrix - Regimen: Daily Repeat
Assay type: toxicity, organism-based, Sprague-Dawley
Set-up: regimen Daily Repeat, gender Male, age 6-8 weeks
Test settings: in vivo, po, 0 mg/kg, 120 h, tissue Plasma, route oral GAVAGE, dose level Control, time 5 day, vehicle 100 % WATER
Entries and their GLUCOSE values follow.
Experimental endpoint: GLUCOSE (mg/dL)

* O=c1[nH]c(=O)n(C2CCCO2)cc1F (stereo not given) | 161.83
* CCN(C(C)=O)c1cccc(-c2ccnc3c(C#N)cnn23)c1 | 152.5
* CN(C)CCC=C1c2ccccc2CCc2ccccc21 | 152.5
* CCN(CC)CCOC(=O)C1(C2CCCCC2)CCCCC1 | 180.67
* CN(C)C(=O)Oc1cccc([N+](C)(C)C)c1.[Br-] [NEOSTIGMINE BROMIDE] | 137
